Test system: SN12C renal
Run Description: NCI tumour cell line growth inhibition, 48 h
TGI values for the compounds below.
Attribute Measured: TGI

compound=NC(=S)N/N=C/c1cc(CN2CCOCC2)c(N)cn1 result="> 100 µM"
compound="CC(=O)OCC(OC(C)=O)C(OC(C)=O)C(/C=N/N(C(C)=O)S(=O)(=O)c1ccc(/C=C2\\NC(=O)NC2=O)cc1)OC(C)=O (centres undefined)" result="> 100 µM"
compound=Clc1nc(Cl)c2ncn(C/C=C\Cn3cnc4c(Cl)nc(Cl)nc43)c2n1 result="9.71 µM"
compound=O=c1c2cc(I)ccc2nc(-c2cccs2)n1Nc1ccccc1 result="> 100 µM"

###

Tested on: SF-295 CNS
Run Description: NCI tumour cell line growth inhibition, 48 h
Reported GI50 values for a set of compounds
Attribute Measured: GI50

structure_as_smiles=COc1ccc(NC2=C(Sc3nc(C)cc(C)n3)C(=O)N(Cc3ccccc3)C2=O)cc1Cl result="74.9 µM"
structure_as_smiles=Cc1c(C(=O)/C=C/c2ccc(O)cc2)nnn1-c1ccnc2c(C(F)(F)F)cccc12 result="25.8 µM"
structure_as_smiles=Nc1nc(-n2cccn2)nc(-n2cccn2)c1Br result="> 100 µM"
structure_as_smiles=O=C(O)C(/C=C/c1ccco1)=N\Nc1nc(-c2ccc(Cl)cc2)cs1 result="0.842 µM"

###

Test system: SF-539 CNS
Run Description: NCI tumour cell line growth inhibition, 48 h
// reported TGI per item
Attribute Measured: TGI

molecule="O=S(=O)(CC1=NC2C=CC=CC2N=C1)NCc1ccccc1 (stereo not given)" result="> 100 µM"
molecule=NC(=S)N/N=C/c1cc(CN2CCOCC2)c(N)cn1 result="84.2 µM"
molecule=O=C(O)CCC(=O)Nc1ccc2c(c1)S(=O)(=O)N(CC(=O)O)C2=O result="> 100 µM"
molecule=[N-]=[N+]=Nc1ncc(-c2ccc(C(F)(F)F)cc2)c(NC2CCCCCC2)n1 result="> 10 µM"
molecule=O=C1C(NCCO)=C(N2CC2)C(=O)C(NCCO)=C1N1CC1 result="98 µM"
molecule="CC(=O)OCC(OC(C)=O)C(OC(C)=O)C(/C=N/N(C(C)=O)S(=O)(=O)c1ccc(/C=C2\\NC(=O)NC2=O)cc1)OC(C)=O (stereo not given)" result="> 100 µM"
molecule=C1=CCN(c2ccccc2)CC1 result="> 100 µM"
molecule=N#C/C(=C\c1cn(-c2ccccc2)c2ccccc12)C(=O)O result="> 100 µM"
molecule=COC(=O)C1=CN(CC2=CC(=O)C(C)=CC2=O)C=C(C(=O)OC)C1c1cccc(OC)c1OC result="56.2 µM"
molecule=N#Cc1c(-c2ccccc2)c(C#N)c(=O)n(NS(=O)(=O)c2ccccc2)c1O result="> 100 µM"

###

# Lookup of reported TGI keyed by entry
Test system: SR leukemia
Run Description: NCI tumour cell line growth inhibition, 48 h
*1 amine or outer side, *2 acyl side, *3 side chain or, on linkers, in order; H or OH if unused. Where a SMILES comes first, the peptide text is derived from it. Bridges are numbered along the chain shown (N, C = ends). [ ]: non-standard residue; d: D form. ξ: configuration not given here. X4 = CCC(C)C(N[*:1])C(O)CC(=O)O[C@H](C(=O)C(C)C(=O)[*:2])C(C)C; NMeY = CN[C@@H](Cc1ccc(O)cc1)C(=O)O; X9 = O=C([C@@H]1CC(O)CN1[*:1])[*:2]; ξNMeL = CNC(CC(C)C)C(=O)O; ξT = CC(O)C(N)C(=O)O
Attribute Measured: TGI

compound="COc1ccc(C2=NNC(c3ccc(-c4ccc(OC)cc4[N+](=O)[O-])o3)C2)cc1 (stereo not given)" target_of_assay="SR leukemia" attribute_measured=TGI result="> 100 µM"
compound="Cc1cccc(C(C)O)n1 (stereo not given)" target_of_assay="SR leukemia" attribute_measured=TGI result="> 100 µM"
compound="Nc1ncc2c(n1)-c1ccccc1OC2NC1CC1 (stereo not given)" target_of_assay="SR leukemia" attribute_measured=TGI result="> 100 µM"
compound=O=C(O)CCC(=O)Nc1ccc2c(c1)S(=O)(=O)N(CC(=O)O)C2=O target_of_assay="SR leukemia" attribute_measured=TGI result="> 100 µM"
compound="COc1ncnc2c(NC3OC(CO)C(O)C3O)ncnc12 (stereo not given)" target_of_assay="SR leukemia" attribute_measured=TGI result="0.276 µM"
compound=C#Cc1cccc(NC(=O)Nc2ccc(NC(=O)CCl)cc2)c1 target_of_assay="SR leukemia" attribute_measured=TGI result="26.7 µM"
compound=CCCCCCC(N)(CCCCCC)C(=O)Nn1c(C)ccc1C target_of_assay="SR leukemia" attribute_measured=TGI result="> 100 µM"
compound="CC1C(=O)N=C2C(=CN(Cc3ccccc3)c3ccccc32)C(=O)N1C (stereo not given)" target_of_assay="SR leukemia" attribute_measured=TGI result="> 100 µM"
compound=O=C(Nc1ccccc1)N1CCNC1=S target_of_assay="SR leukemia" attribute_measured=TGI result="> 100 µM"
compound=Cn1c2ccccc2c2c(=O)n(CCCC(=O)NCC(=O)OC(=NC3CCCCC3)NC3CCCCC3)c3c(-c4ccccc4)nnn3c21 target_of_assay="SR leukemia" attribute_measured=TGI result="5.09 µM"
compound="CCCCCCCCCCCCCCCC(=O)NC1CCc2cc(O)c(O)c(O)c2-c2ccc(SC)c(=O)cc21 (stereo not given)" target_of_assay="SR leukemia" attribute_measured=TGI result="> 31 µM"
compound=COc1cc2c(cc1OCCCCCOc1cc(-c3ccc(F)cc3)nc(C)n1)N=C[C@@H]1CCCN1C2=O target_of_assay="SR leukemia" attribute_measured=TGI result="> 57.9 µM"
compound="CCC(C)C1NC(=O)C(NC(=O)C(CC(C)C)N(C)C(=O)[C@@H]2CC(O)CN2)C(C)OC(=O)[C@H](Cc2ccc(OC)cc2)N(C)C(=O)[C@@H]2CCCN2C(=O)[C@H](CC(C)C)NC(=O)C(C)C(=O)[C@H](C(C)C)OC(=O)CC1O (stereo not given in full) (H-[X9][ξNMeL][ξT][X4]LP[NMeY](Me); ester 3-C)" target_of_assay="SR leukemia" attribute_measured=TGI result="> 100 µM"
compound="COc1ccc(NC=O)c(C(O)CCNC(C)=O)c1 (stereo not given)" target_of_assay="SR leukemia" attribute_measured=TGI result="> 100 µM"
compound=CC[C@@]1(O)C(=O)NCc2c1cc1n(c2=O)Cc2cc3cc4c(cc3nc2-1)OCO4 target_of_assay="SR leukemia" attribute_measured=TGI result="0.2 µM"
compound=C/C(=N\NC(N)=S)c1ccc2c(c1)OCO2 target_of_assay="SR leukemia" attribute_measured=TGI result="> 100 µM"
compound=N[C@@H]1C[C@H](N)c2c(Cl)sc(Cl)c21 target_of_assay="SR leukemia" attribute_measured=TGI result="> 100 µM"
compound=C1CSCC2(COC2)CS1 target_of_assay="SR leukemia" attribute_measured=TGI result="> 100 µM"
compound=N#Cc1nc(-c2cccc(Br)c2)cc(-c2ccc(Nc3nc(N4CCCCC4)nc(N4CCCCC4)n3)cc2)c1N target_of_assay="SR leukemia" attribute_measured=TGI result="> 100 µM"
compound=CSc1nc(C)cc(Nc2ccc(O)c(CN3CCCCC3)c2)n1 target_of_assay="SR leukemia" attribute_measured=TGI result="> 100 µM"

###

# reported TGI; entries follow
Test system: HOP-92 NSCLC
Run Description: NCI tumour cell line growth inhibition, 48 h
Attribute Measured: TGI (µM)

molecule=CC1(C)CCSC(/C=C/c2ccccc2)=N1 comparator== measured_number=35.9
molecule="O=c1cc(-c2ccc(O)c(O)c2)oc2cc(OC3OC(CO)C(O)C(O)C3O)cc(O)c12 (stereo not drawn)" comparator=> measured_number=100
molecule="CN(C)c1ccc(C2CC(=O)CC(c3ccc(N(C)C)cc3)C23C(=O)NC(=O)NC3=O)cc1 (stereo not drawn)" comparator== measured_number=19

###

Examples of compounds with documented GI50 follow.
Tested on: UACC-62 melanoma
Run Description: NCI tumour cell line growth inhibition, 48 h
Attribute Measured: GI50

compound=CC[C@@]1(O)C(=O)NCc2c1cc1n(c2=O)Cc2cc3cc4c(cc3nc2-1)OCO4 attribute_measured=GI50 result="243 nM"
compound=COC(=O)c1c2c(c(C)[n+]([O-])c1C)C(=O)C=C(NCc1ccc(Cl)cc1)C2=O attribute_measured=GI50 result="46 nM"
compound=Cn1c2ccccc2c2c(=O)n(CCCC(=O)NCC(=O)OC(=NC3CCCCC3)NC3CCCCC3)c3c(-c4ccccc4)nnn3c21 attribute_measured=GI50 result="25800 nM"
compound=C#Cc1cccc(NC(=O)Nc2ccc(NC(=O)CCl)cc2)c1 attribute_measured=GI50 result="17400 nM"
compound=O=C(CNC(=O)c1cccc2ccccc12)Nc1ccccc1Oc1cccc(O)c1 attribute_measured=GI50 result="1620 nM"
compound=CCOC(=O)c1cc2c(cc1Cl)SC(N(c1ccc(F)cc1)S(=O)(=O)c1ccc(OC)cc1)=NS2(=O)=O attribute_measured=GI50 result="14600 nM"
compound=CN(C)c1cccc2[nH]c(-c3[nH]ncc3Nc3ccnc(N)n3)nc12 attribute_measured=GI50 result="13.6 nM"
compound=c1ccc(-c2nc(Nc3ccc(-c4nc5ccccc5[nH]4)cc3)nc(N3CCOCC3)n2)cc1 attribute_measured=GI50 result="1660 nM"
compound=COc1ccc2c(c1)[nH]c(=O)c1c3cccnc3cn21 attribute_measured=GI50 result="43.1 nM"
compound=C=C1C(=O)O[C@H]2[C@H]1CC/C(COC(=O)NCCc1ccc(OC)cc1)=C\CC[C@@]1(C)O[C@@H]21 attribute_measured=GI50 result="1250 nM"
compound=N#Cc1nc(-c2cccc(Br)c2)cc(-c2ccc(Nc3nc(N4CCCCC4)nc(N4CCCCC4)n3)cc2)c1N attribute_measured=GI50 result="1500 nM"
compound=CCCCCCCCCCCCCCCCCCOc1ccccc1CC(=O)OCC[N+](C)(C)C attribute_measured=GI50 result="1570 nM"
compound=Nc1cc(N)c2nc(-c3ccccc3)c(Nc3ccc(F)cc3)nc2c1 attribute_measured=GI50 result="16100 nM"
compound=Cc1c(C(=O)/C=C/c2ccc(O)cc2)nnn1-c1ccnc2c(C(F)(F)F)cccc12 attribute_measured=GI50 result="18700 nM"
compound=COc1ccc(/C=C/C(=O)c2ccc(Nc3ncnc4ccccc34)cc2)cc1OC attribute_measured=GI50 result="10700 nM"
compound="COc1ccc(C2=NNC(c3ccc(-c4ccc(OC)cc4[N+](=O)[O-])o3)C2)cc1 (configuration not stated)" attribute_measured=GI50 result="691 nM"
compound="O=C1N=C2c3c(sc4c3CCCC4)N=CN2C1N=Nc1ccc(Cl)cc1 (configuration not stated)" attribute_measured=GI50 result="16700 nM"
